tgt: VOP 28A-2 (synthetic)
Sequence (chain, as listed by the source): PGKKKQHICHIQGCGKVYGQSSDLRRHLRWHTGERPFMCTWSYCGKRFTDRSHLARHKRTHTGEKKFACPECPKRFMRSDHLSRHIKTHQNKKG
protocol.details: EMSA
condition.details: tags: MBP fusion (pMal-c2), SP1 backbone
pKd: −log10 of the molar value.

| binder | pKd |
| --- | --- |
| VOP 28A-2 target (dsDNA) DNA 1: GGGGGCGCT DNA 2: AGCGCCCCC | > 10.70 |
